System: CCRF-CEM
Experimental Protocol: Cytotoxicity against human CCRF-CEM cells assessed as cell viability at 10 uM incubated for 72 hrs by CellTiter-Glo luminescence based assay
Assay type: functional
Settings: read-out: Activity
For each record, check the reported viability at 10 µM: if it is below 90% write Met, else write Not met.

Data request: For this compound, is viability at 10 µM lower than 90%? `O=C(Nc1nc(=O)n(CCOCP(=O)(O)O)s1)c1ccccc1`
Data returned: Not met

Data request: For this compound, is viability at 10 µM lower than 90%? `CCOC(=O)Nc1nc(=O)n(C[C@@H](CO)OCP(=O)(O)O)s1`
Data returned: Not met

Data request: For this compound, is viability at 10 µM lower than 90%? `CCOC(=O)Nc1nc(=O)n(C[C@@H](CO)OCP(=O)(OC(C)C)OC(C)C)s1`
Data returned: Met

Data request: For this compound, is viability at 10 µM lower than 90%? `Nc1nc(OCCOCP(=O)(O)O)ns1`
Data returned: Not met

***
Data request: For this compound, is viability at 10 µM lower than 90%? `O=C(Nc1nc(=O)n(CCOCP(=O)(O)O)s1)OCC1c2ccccc2-c2ccccc21`
Data returned: Met

---

Experimental Protocol: Cytotoxicity against human NHDF cells assessed as cell viability at 10 uM incubated for 72 hrs by CellTiter-Glo luminescence based assay
Settings: read-out: Activity
Assay Metric: viability at 72 h, 10 µM (%)
# number only, unit % dropped from output

Guide cases for viability at 72 h, 10 µM, answers given:
Data request: Endpoint output: viability at 72 h, 10 µM of `O=C(Nc1nc(=O)n(C[C@@H](CO)OCP(=O)(O)O)s1)c1ccccc1` . Value?
Data returned: 105

Data request: Endpoint output: viability at 72 h, 10 µM of `Nc1nc(=O)[nH]s1` . Value?
Data returned: 101

Data request: Endpoint output: viability at 72 h, 10 µM of `CCOC(=O)Nc1nc(=O)n(C[C@@H](CO)OCP(=O)(O)O)s1` . Value?
Data returned: 101

Data request: Endpoint output: viability at 72 h, 10 µM of `O=C(Nc1nc(=O)n(C[C@@H](CO)OCP(=O)(O)O)s1)OCC1c2ccccc2-c2ccccc21` . Value?
Data returned: 98

Data request: Endpoint output: viability at 72 h, 10 µM of `CCOC(=O)Nc1nc(=O)n(CCOCP(=O)(O)O)s1` . Value?
Data returned: 94

Read the next record carefully.
Data request: Endpoint output: viability at 72 h, 10 µM of `CC(C)OP(=O)(COCCOc1nsc(/N=C/N(C)C)n1)OC(C)C` . Value?
Data returned: 101

---

System: CCRF-CEM
Experimental Protocol: Cytotoxicity against human CCRF-CEM cells assessed as cell viability at 10 uM incubated for 72 hrs by CellTiter-Glo luminescence based assay
Type: functional
Settings: read-out: Activity
Assay Metric: viability at 10 µM (%)
# number only, unit % dropped from output

Guide cases for viability at 10 µM, answers given:
Data request: Write down the reported viability at 10 µM of `CCOC(=O)Nc1nc(=O)n(CCOCP(=O)(O)O)s1` , test system: CCRF-CEM.
Data returned: 74

Data request: Write down the reported viability at 10 µM of `CC(C)OP(=O)(CO[C@H](CO)Cn1sc(NC(=O)OCC2c3ccccc3-c3ccccc32)nc1=O)OC(C)C` , test system: CCRF-CEM.
Data returned: 82

Data request: Write down the reported viability at 10 µM of `Cc1cnc(-c2cnc(NCCNc3ccc(C#N)cn3)nc2-c2ccc(Cl)cc2Cl)[nH]1` , test system: CCRF-CEM.
Data returned: 28

Data request: Write down the reported viability at 10 µM of `CCOC(=O)Nc1nc(=O)n(CCOCP(=O)(OC(C)C)OC(C)C)s1` , test system: CCRF-CEM.
Data returned: 92

Data request: Write down the reported viability at 10 µM of `CN(C)/C=N/c1nc(=O)[nH]s1` , test system: CCRF-CEM.
Data returned: 122

Read the next record carefully.
Data request: Write down the reported viability at 10 µM of `Nc1nc(=O)[nH]s1` , test system: CCRF-CEM.
Data returned: 120
